- MEASURED_TARGET: MAO-B (Homo sapiens, UniProt P27338)
- Sequence (P27338 whole entry): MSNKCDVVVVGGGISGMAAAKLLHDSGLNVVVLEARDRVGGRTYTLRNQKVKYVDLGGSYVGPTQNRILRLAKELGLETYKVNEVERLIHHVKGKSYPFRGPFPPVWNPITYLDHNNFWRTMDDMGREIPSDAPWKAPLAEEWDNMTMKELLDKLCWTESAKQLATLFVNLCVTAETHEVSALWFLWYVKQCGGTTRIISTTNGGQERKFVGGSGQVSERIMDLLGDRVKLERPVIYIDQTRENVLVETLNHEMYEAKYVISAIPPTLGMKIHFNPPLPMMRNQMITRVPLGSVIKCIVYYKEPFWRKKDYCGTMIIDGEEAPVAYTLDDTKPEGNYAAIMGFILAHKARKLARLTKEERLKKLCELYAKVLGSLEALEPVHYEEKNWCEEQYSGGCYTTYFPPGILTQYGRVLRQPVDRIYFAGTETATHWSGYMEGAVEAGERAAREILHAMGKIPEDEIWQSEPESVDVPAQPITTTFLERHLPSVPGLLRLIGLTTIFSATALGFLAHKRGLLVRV
- PROTOCOL_DESCRIPTION: Inhibition of MAO-B (unknown origin) at 10 uM relative to control

CPD_SMILES | OUTPUT_UNIT | inhibition at 10 µM
COc1ccc(-c2coc3cc(O)cc(O)c3c2=O)cc1 | % | 36.8

---

- MEASURED_TARGET: Lysine-specific demethylase 2B (Homo sapiens)
- Sequence (Q8NHM5 whole entry): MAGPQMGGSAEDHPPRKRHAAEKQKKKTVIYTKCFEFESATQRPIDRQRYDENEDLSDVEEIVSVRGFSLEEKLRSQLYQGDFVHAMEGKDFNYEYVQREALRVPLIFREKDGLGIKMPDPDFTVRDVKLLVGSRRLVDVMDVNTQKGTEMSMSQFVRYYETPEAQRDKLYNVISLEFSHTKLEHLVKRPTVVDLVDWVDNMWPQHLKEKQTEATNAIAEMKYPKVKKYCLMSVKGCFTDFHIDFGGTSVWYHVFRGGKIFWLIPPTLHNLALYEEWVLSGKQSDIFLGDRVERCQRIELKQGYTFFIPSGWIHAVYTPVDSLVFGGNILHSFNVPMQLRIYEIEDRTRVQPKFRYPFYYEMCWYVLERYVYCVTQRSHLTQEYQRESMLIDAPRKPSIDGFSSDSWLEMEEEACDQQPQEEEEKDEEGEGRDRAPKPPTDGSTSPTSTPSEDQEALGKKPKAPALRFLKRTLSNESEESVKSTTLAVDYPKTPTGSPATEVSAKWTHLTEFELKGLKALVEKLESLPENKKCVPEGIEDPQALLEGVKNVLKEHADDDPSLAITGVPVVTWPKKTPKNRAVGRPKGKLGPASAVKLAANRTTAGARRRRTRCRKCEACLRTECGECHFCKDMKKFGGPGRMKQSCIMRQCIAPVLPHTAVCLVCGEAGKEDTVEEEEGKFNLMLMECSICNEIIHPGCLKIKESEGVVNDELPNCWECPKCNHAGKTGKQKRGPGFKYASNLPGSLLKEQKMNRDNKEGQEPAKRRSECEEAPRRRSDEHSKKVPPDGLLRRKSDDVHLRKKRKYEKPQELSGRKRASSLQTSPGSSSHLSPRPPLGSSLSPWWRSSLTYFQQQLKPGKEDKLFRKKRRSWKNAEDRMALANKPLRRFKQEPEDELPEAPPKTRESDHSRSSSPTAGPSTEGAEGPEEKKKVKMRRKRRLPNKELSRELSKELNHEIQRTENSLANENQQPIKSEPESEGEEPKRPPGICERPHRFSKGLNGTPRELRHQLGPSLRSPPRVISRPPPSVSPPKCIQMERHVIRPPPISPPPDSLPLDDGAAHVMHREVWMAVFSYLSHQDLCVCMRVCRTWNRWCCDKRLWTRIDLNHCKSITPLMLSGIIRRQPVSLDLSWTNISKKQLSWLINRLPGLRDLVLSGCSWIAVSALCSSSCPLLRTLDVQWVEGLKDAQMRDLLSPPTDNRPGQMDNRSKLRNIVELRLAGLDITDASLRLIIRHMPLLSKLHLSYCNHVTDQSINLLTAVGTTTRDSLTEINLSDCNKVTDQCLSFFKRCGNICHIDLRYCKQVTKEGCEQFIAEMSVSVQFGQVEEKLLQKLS
METRIC_NAME: IC50 (µM)

CPD_SMILES | VALUE_MEASURED
Cc1c(O)c(=O)ccn1C | 8.1

---

- MEASURED_TARGET: UniProt:P21397
- Sequence (P21397 whole entry): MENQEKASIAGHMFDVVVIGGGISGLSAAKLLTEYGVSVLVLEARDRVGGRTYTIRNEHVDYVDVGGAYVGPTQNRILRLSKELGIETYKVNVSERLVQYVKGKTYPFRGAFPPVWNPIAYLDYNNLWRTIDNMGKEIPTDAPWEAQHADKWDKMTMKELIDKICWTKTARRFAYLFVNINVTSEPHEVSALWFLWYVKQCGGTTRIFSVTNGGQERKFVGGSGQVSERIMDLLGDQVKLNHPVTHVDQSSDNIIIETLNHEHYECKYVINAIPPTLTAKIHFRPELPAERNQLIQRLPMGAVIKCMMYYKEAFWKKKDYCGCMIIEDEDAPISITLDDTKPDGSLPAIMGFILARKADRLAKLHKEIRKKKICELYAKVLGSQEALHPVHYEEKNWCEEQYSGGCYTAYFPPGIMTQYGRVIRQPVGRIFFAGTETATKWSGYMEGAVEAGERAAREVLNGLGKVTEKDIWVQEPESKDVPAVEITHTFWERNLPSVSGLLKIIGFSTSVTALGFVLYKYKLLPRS
- PROTOCOL_DESCRIPTION: Inhibition of MAO-A (unknown origin) at 100 uM relative to control
METRIC_NAME: inhibition at 100 µM (%)

MOLECULE | VALUE_MEASURED
NC1CC1c1ccc(NC(=O)c2ccc(-c3ccccc3)cc2)cc1 (stereo unspecified) | 2
